# test_system: T1, Amylin 3(a) receptor (human calcitonin receptor (CTa) with RAMP-3) (human, UniProt P30988 25-474; O60896 24-148, limits assumed)
# T1 sequence (looked up) 1: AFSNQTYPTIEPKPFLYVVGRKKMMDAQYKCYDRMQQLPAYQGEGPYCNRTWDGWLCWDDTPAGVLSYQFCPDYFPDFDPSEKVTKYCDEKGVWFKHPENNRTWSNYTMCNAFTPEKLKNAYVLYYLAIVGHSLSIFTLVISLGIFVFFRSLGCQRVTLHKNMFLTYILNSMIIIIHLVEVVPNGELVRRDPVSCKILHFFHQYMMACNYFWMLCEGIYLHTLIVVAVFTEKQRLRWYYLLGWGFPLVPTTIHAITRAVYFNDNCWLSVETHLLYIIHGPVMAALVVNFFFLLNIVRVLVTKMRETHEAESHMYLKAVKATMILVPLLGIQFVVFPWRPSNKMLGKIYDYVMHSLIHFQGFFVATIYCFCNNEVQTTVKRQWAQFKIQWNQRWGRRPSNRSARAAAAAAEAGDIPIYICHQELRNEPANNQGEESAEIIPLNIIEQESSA
# T1 sequence (looked up) 2: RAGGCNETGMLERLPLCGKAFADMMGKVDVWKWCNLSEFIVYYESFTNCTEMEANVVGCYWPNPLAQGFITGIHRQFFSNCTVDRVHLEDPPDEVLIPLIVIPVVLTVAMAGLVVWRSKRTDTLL
# experiment_notes: cell-based or functional assay
Bridges are numbered along the chain shown (N, C = ends). Where no end group is shown, it is not given here. Side-chain parts run from the residue outwards. The star is where a group is joined. X1 = (S)‑4‑Carboxy‑4‑(17-carboxyheptadecanoylamino)butyryl, O=C(O)CCCCCCCCCCCCCCCCC(=O)N[C@@H](CCC(=O)*)C(=O)O; C20 diacid = O=C(O)CCCCCCCCCCCCCCCCCCC(=O)*; AEEA = NCCOCCOCC(=O)O
hey, just use 1 if measured Potency Luciferase is less than 0.1 nM, otherwise 0

Please review the following examples before continuing.
binder	group
EECNTATCATQRLANFLHHSSNNFGPILPPTNVGSNTY-NH2 (disulfide 3-8; not fully specified (N-terminus); printed as N-alpha-[(S)-4-Carboxy-4-(19-carboxynonadecanoylamino)butyryl]-Glu-[Glu1,His17]-pramlintide) [N-alpha-[(S)-4-Carboxy-4-(19-carboxynonadecanoylamino)butyryl]-Glu-[Glu1,His17]-pramlintide]	0
X1-HCNTATCATQRLANFLHHSSNNFGPILPPTNVGSNTY-NH2 (disulfide 2-7) [N-alpha-[(S)-4-Carboxy-4-(17-carboxyheptadecanoylamino)butyryl]-[His1,His17]-pramlintide]	1
{C20 diacid-4‑aminobutyryl}-CNTATCATQRLANFLHHSSNNFGPILPPTNVGSNTY-NH2 (disulfide 1-6) [N-alpha-[4-(19-Carboxynonadecanoylamino)butyryl]-[His17]-pramlintide (2-37)]	1

Attention now turns to another entry.
Task item: Confirm or reject: Potency Luciferase of KCK([AEEA-Glu-Glu-C20 diacid])TATCATQRLANFLHHSSDNFGPILPPTNVGSNTY-NH2 (disulfide 2-7) lies strictly below 0.1 nM
Reply: 0

Reference source: patent US20110105394A1
